Source: patent US7598260B2

experiment: Solubility (Löslichkeit, g/l); assay type: physicochemical
assay.readout: Sw (g/L)

[
  {
    "compound": "CC(=O)c1ccc(Nc2ncc(Br)c(N[C@H](CO)C(C)C)n2)cc1",
    "unit": "g/L",
    "endpoint.value": 0.026
  },
  {
    "compound": "C#CCNc1nc(Nc2ccc(S(N)(=O)=O)cc2)ncc1Cl",
    "unit": "g/L",
    "endpoint.value": 0.005
  },
  {
    "compound": "C#CCNc1nc(Nc2ccc3c(c2)CCN3S(C)(=O)=O)ncc1Br",
    "unit": "g/L",
    "endpoint.value": 0.0016
  },
  {
    "compound": "CC(C)[C@H](CO)Nc1nc(Nc2ccc(O)cc2)ncc1Br",
    "unit": "g/L",
    "endpoint.value": 0.042
  },
  {
    "compound": "CSc1ccc(Nc2ncc(Br)c(NC(CO)CO)n2)cc1",
    "unit": "g/L",
    "endpoint.value": 0.013
  },
  {
    "compound": "NS(=O)(=O)c1ccc(Nc2ncc(Br)c(NCCN3CCOCC3)n2)cc1",
    "unit": "g/L",
    "endpoint.value": 0.007
  },
  {
    "compound": "C#CCNc1nc(Nc2ccc(CP(=O)(OCC)OCC)cc2)ncc1Br",
    "unit": "g/L",
    "endpoint.value": 0.0023
  },
  {
    "compound": "COC[C@H](C)Nc1nc(Nc2cccc(S(=O)(=O)CCO)c2)ncc1Br",
    "unit": "g/L",
    "endpoint.value": 0.04
  },
  {
    "compound": "CSc1ccc(Nc2ncc(Br)c(N[C@@H](CO)C(C)C)n2)cc1",
    "unit": "g/L",
    "endpoint.value": 0.024
  },
  {
    "compound": "C#CCNc1nc(Nc2ccc([S+](C)[O-])cc2)ncc1Br (stereo not shown)",
    "unit": "g/L",
    "endpoint.value": 0.017
  },
  {
    "compound": "CC(=O)c1ccc(Nc2ncc(Br)c(N[C@@H](CO)C(C)C)n2)cc1",
    "unit": "g/L",
    "endpoint.value": 0.023
  },
  {
    "compound": "CC(=O)c1ccc(Nc2ncc(Br)c(NCC3CC3)n2)cc1",
    "unit": "g/L",
    "endpoint.value": 0.0005
  },
  {
    "compound": "O=S(=O)(CCO)c1cccc(Nc2ncc(Br)c(NC(CO)CO)n2)c1",
    "unit": "g/L",
    "endpoint.value": 0.041
  },
  {
    "compound": "C#CCOc1nc(Nc2ccc(OCC3CO3)cc2)ncc1Br (stereo not shown)",
    "unit": "g/L",
    "endpoint.value": 0.002
  },
  {
    "compound": "NS(=O)(=O)c1ccc(Nc2ncc(Br)c(NCC3CC3)n2)cc1",
    "unit": "g/L",
    "endpoint.value": 0.0069
  },
  {
    "compound": "C#CCNc1nc(Nc2ccc(O)cc2)ncc1Br",
    "unit": "g/L",
    "endpoint.value": 0.043
  },
  {
    "compound": "O=S(=O)(CCO)c1cccc(Nc2ncc(Br)c(NCCN3CCOCC3)n2)c1",
    "unit": "g/L",
    "endpoint.value": 0.039
  },
  {
    "compound": "CCOC(=O)CCCNc1nc(Nc2ccc(C(C)=O)cc2)ncc1Br",
    "unit": "g/L",
    "endpoint.value": 0.001
  },
  {
    "compound": "C#CCNc1nc(Nc2cccc(S(N)(=O)=O)c2)ncc1Br",
    "unit": "g/L",
    "endpoint.value": 0.018
  }
]

* * *

test: Solubility (Löslichkeit, g/l); assay type: physicochemical
Just so you know, the groups by Sw go like this: lower range = under 0.006 g/L, middle range = from 0.006 g/L up to 0.03 g/L, upper range = 0.03 g/L and over

[
  {
    "molecule": "C#CCOc1nc(Nc2ccc(C(C)=O)cc2)ncc1Br",
    "category.label": "lower range"
  },
  {
    "molecule": "CC(=O)c1ccc(Nc2ncc(Br)c(OCCCC(F)(F)F)n2)cc1",
    "category.label": "lower range"
  },
  {
    "molecule": "CCC(Nc1nc(Nc2ccc(S(N)(=O)=O)cc2)ncc1Br)C(=O)OC (stereo not shown)",
    "category.label": "middle range"
  },
  {
    "molecule": "C#CCOc1nc(Nc2ccc(O)cc2)ncc1Br",
    "category.label": "middle range"
  },
  {
    "molecule": "NS(=O)(=O)c1ccc(Nc2ncc(Br)c(NCCCC(=O)O)n2)cc1",
    "category.label": "upper range"
  },
  {
    "molecule": "CC(C)[C@H](CO)Nc1nc(Nc2ccc(S(=O)(=O)NCCO)cc2)ncc1Br",
    "category.label": "upper range"
  },
  {
    "molecule": "OCC(CO)Nc1nc(Nc2ccc(O)cc2)ncc1Br",
    "category.label": "upper range"
  },
  {
    "molecule": "CC(=O)c1ccc(Nc2ncc(Br)c(NCCc3c[nH]cn3)n2)cc1",
    "category.label": "lower range"
  },
  {
    "molecule": "COC[C@H](C)Nc1nc(Nc2ccc(S(N)(=O)=O)cc2)ncc1Br",
    "category.label": "middle range"
  }
]

* * *

biological target: CDK2/CycE (Homo sapiens, UniProt P24941); construct: GST; purchased Dr. Dieter Marmé, Klinik für Tumorbiologie, Freiburg; host or cells: baculovirus-infected Sf9 insect cells; experiment: CDK2/CycE kinase assay (enzyme test); format: biochemical; details: read-out: Inhibition IC50 [nM] CDK2/CycE
Labelling: IC50 reported below 200 nM becomes criterion met; at or above becomes criterion not met.

[
  {
    "compound": "Oc1ccc(Nc2ncc(Br)c(NCCN3CCOCC3)n2)cc1 [Example 2]",
    "category.label": "criterion not met"
  },
  {
    "compound": "C#CCNc1nc(Nc2cccc(S(=O)(=O)CCO)c2)ncc1Br [Example 21]",
    "category.label": "criterion not met"
  },
  {
    "compound": "COC[C@H](C)Nc1nc(Nc2ccc(S(N)(=O)=O)cc2)ncc1Br [Example 7]",
    "category.label": "criterion met"
  },
  {
    "compound": "CC(C)[C@H](CO)Nc1nc(Nc2ccc(S(N)(=O)=O)cc2)ncc1Br [Example 10]",
    "category.label": "criterion met"
  },
  {
    "compound": "C#CCNc1nc(Nc2ccc([S+](C)[O-])cc2)ncc1Br (stereo not shown) [Example 25]",
    "category.label": "criterion met"
  },
  {
    "compound": "C#CCNc1nc(Nc2ccc(CP(=O)(OCC)OCC)cc2)ncc1Br [Example 31]",
    "category.label": "criterion not met"
  },
  {
    "compound": "C#CCOc1nc(Nc2ccc(OCC(O)CN3CCN(c4ccccc4C#N)CC3)cc2)ncc1Br (stereo not shown) [Example 98]",
    "category.label": "criterion not met"
  },
  {
    "compound": "C#CCNc1nc(Nc2cccc(SC(F)(F)F)c2)ncc1Br [Example 35]",
    "category.label": "criterion met"
  },
  {
    "compound": "CC(=O)c1ccc(Nc2ncc(Br)c(NCCc3c[nH]cn3)n2)cc1 [Example 87]",
    "category.label": "criterion not met"
  },
  {
    "compound": "CCOC(=O)CCCNc1nc(Nc2ccc(C(C)=O)cc2)ncc1Br [Example 85]",
    "category.label": "criterion not met"
  },
  {
    "compound": "C#CCNc1nc(Nc2ccc3[nH]ncc3c2)ncc1Br [Example 37]",
    "category.label": "criterion met"
  },
  {
    "compound": "C#CCOc1nc(Nc2ccc(OCC3CO3)cc2)ncc1Br (stereo not shown) [Example 40]",
    "category.label": "criterion met"
  }
]

* * *

test system: human tumor cells (as indicated); experiment: Proliferation assay, crystal violet staining, other human tumor cells as indicated in the tables; type: cell-based; details: NCI-H460, 96 h, H460 cells, 4 days incubation, read-out: Proliferation IC50 [μM] H460
assay.readout: IC50 (µM)

[
  {
    "compound.structure.string": "COC[C@H](C)Nc1nc(Nc2ccc(S(N)(=O)=O)cc2)ncc1Br",
    "unit": "µM",
    "endpoint.value": 1.5
  },
  {
    "compound.structure.string": "C#CCNc1nc(Nc2ccc(S(N)(=O)=O)cc2)ncc1Cl",
    "unit": "µM",
    "endpoint.value": 0.4
  },
  {
    "compound.structure.string": "C#CCOc1nc(Nc2ccc(O)cc2)ncc1Br",
    "unit": "µM",
    "endpoint.value": 6
  },
  {
    "compound.structure.string": "C#CCOc1nc(Nc2ccc(C(C)=O)cc2)ncc1Br",
    "unit": "µM",
    "endpoint.value": 1.5
  }
]
